- System: MCF7
- assay: Cytotoxicity against human MCF7 cells after 72 hrs by alamar blue assay
- Type: functional, cell-based
- conditions: MCF7, 72 h
pIC50: −log10 of the molar value.
Quick rule: pIC50 of at least 6 means true, below that means false.

Before answering, review these 3 worked examples.
CN(C)CCNC(=O)c1cccc(NC(=O)Nc2ccc(N(CCCl)CCCl)cc2)c1.Cl    true
O=C(Nc1ccc(N(CCCl)CCCl)cc1)Nc1cccc(OCCN2CCCCC2)c1    false
CN(C)CCCNC(=O)c1ccc(NC(=O)Nc2ccc(N(CCCl)CCCl)cc2)cc1.Cl    false

Can Cl.O=C(Nc1ccc(C(=O)N2CCC(N3CCCCC3)CC2)cc1)Nc1ccc(N(CCCl)CCCl)cc1 be said to have pIC50 at or above 6? false

Tell me whether pIC50 is at least 6 here: Cl.O=C(Nc1ccc(OCCN2CCCC2)cc1)Nc1ccc(N(CCCl)CCCl)cc1 false

Exam item: decide whether the reported pIC50 for Cl.O=C(Nc1ccc(N(CCCl)CCCl)cc1)Nc1cccc(C(=O)N2CCC(N3CCCCC3)CC2)c1 is at least 6. false

* * *

- Test system: CCRF-CEM
- assay: Selectivity ratio of IC50 for vinblastine-resistant human CCRF-CEM cells to IC50 for human CCRF-CEM cells
- Type: functional
outcome.measure: Ratio IC50
The reply should be a number, written without any unit.

CN(C)CCCOc1cccc(NC(=O)Nc2ccc(N(CCCl)CCCl)cc2)c1    7.4
Cl.O=C(Nc1ccc(C(=O)NCCN2CCCC2)cc1)Nc1ccc(N(CCCl)CCCl)cc1    112.5

Quote Ratio IC50 reported for Cl.O=C(Nc1ccc(N(CCCl)CCCl)cc1)Nc1cccc(C(=O)NCCN2CCOCC2)c1 please. 28.1

* * *

Reported values of Ratio IC50 for individual entries
- Tested on: CCRF-CEM
- assay: Selectivity ratio of IC50 for vinblastine-resistant human CCRF-CEM cells to IC50 for human CCRF-CEM cells
- Format: functional
Quick one: just the number, no unit, thanks!

CN(C)CCCNC(=O)c1ccc(NC(=O)Nc2ccc(N(CCCl)CCCl)cc2)cc1.Cl    124.8

Answer with Ratio IC50 of CN(C)CCOc1ccc(NC(=O)Nc2ccc(N(CCCl)CCCl)cc2)cc1.Cl measured for CCRF-CEM. 6.02

Specify the recorded Ratio IC50 for O=C(Nc1ccc(N(CCCl)CCCl)cc1)Nc1cccc(OCCN2CCOCC2)c1 , system: CCRF-CEM. 2.8

Report value: Ratio IC50, system: CCRF-CEM, compound: Cl.O=C(Nc1ccc(C(=O)NCCN2CCOCC2)cc1)Nc1ccc(N(CCCl)CCCl)cc1 16.8

Using CCRF-CEM as the test system, report measured Ratio IC50 of Cl.O=C(Nc1ccc(OCCN2CCCC2)cc1)Nc1ccc(N(CCCl)CCCl)cc1 . 15

* * *

- assay: Steady state clearance in Sprague-Dawley rat at 1 mg/kg, iv up to 24 hrs by LC-MS/MS analysis
- Format: ADME, organism-based
- Set-up: dose 1 mg/kg, route intravenous
- conditions: in vivo, read-out: CLss
outcome.measure: clearance

State, in one line, measured clearance of CN(C)CCNC(=O)c1cccc(NC(=O)Nc2ccc(N(CCCl)CCCl)cc2)c1.Cl 18 mL/min/kg

* * *

Below, each entry is listed alongside its reported Ratio IC50.
- Test system: CCRF-CEM
- assay: Selectivity ratio of IC50 for taxol-resistant human CCRF-CEM cells to IC50 for human CCRF-CEM cells
- Format: functional
Form rule: numeric answer, no unit written next to it.

Cl.O=C(Nc1ccc(OCCN2CCCCC2)cc1)Nc1ccc(N(CCCl)CCCl)cc1    4.02
O=C(Nc1ccc(N(CCCl)CCCl)cc1)Nc1cccc(OCCN2CCOCC2)c1    1.8
CN(C)CCCOc1ccc(NC(=O)Nc2ccc(N(CCCl)CCCl)cc2)cc1.Cl    11.8
Cl.O=C(Nc1ccc(N(CCCl)CCCl)cc1)Nc1cccc(C(=O)NCCN2CCOCC2)c1    14.1
O=C(Nc1ccc(N(CCCl)CCCl)cc1)Nc1cccc(OCCN2CCCC2)c1    3.5

State Ratio IC50 (CCRF-CEM) of Cl.O=C(Nc1ccc(OCCN2CCCC2)cc1)Nc1ccc(N(CCCl)CCCl)cc1 . 11.5

Output reported Ratio IC50 of the molecule Cl.O=C(Nc1ccc(N(CCCl)CCCl)cc1)Nc1cccc(C(=O)N2CCC(N3CCCCC3)CC2)c1 on CCRF-CEM. 43.5

Lab note: CCRF-CEM assay, enter Ratio IC50 for Cl.O=C(Nc1ccc(OCCN2CCOCC2)cc1)Nc1ccc(N(CCCl)CCCl)cc1 here 2.4

Fill in: Ratio IC50 on CCRF-CEM, entry Cl.O=C(Nc1ccc(C(=O)NCCN2CCCC2)cc1)Nc1ccc(N(CCCl)CCCl)cc1 71.8

Using CCRF-CEM as the test system, report measured Ratio IC50 of CN(C)CCCNC(=O)c1cccc(NC(=O)Nc2ccc(N(CCCl)CCCl)cc2)c1.Cl . 9.4
